- Target or system: PABPC1 RRM2/3 (human, UniProt P11940 100-289)
- Sequence (P11940 100-289): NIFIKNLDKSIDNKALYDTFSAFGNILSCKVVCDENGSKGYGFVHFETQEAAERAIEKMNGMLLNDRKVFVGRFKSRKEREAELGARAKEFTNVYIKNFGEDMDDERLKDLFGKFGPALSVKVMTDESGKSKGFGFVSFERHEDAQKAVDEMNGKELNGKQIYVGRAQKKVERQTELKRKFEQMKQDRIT
- Assay remarks: ITC
Reported endpoint: Kd (µM)

# Binder, Reported endpoint, Endpoint result
records = [
    ("AAAAAAAAAAAA (ssRNA) [A12]", "Kd", 0.0013),
    ("AAAAAAA (ssRNA) [A7]", "Kd", 0.71),
]

All figures here come from paper PMC9019252.
